Reference source for all entries: ChEMBL document CHEMBL4311940

Assay: Drug level in BALB/c mouse plasma xenografted with human HGC27 cells at 30 mg/kg, ip measured 0.5 hrs post last dose
Assay type: ADME, organism-based

- chem-smiles: "COc1ncc(-c2cc(OCCCCCCC(=O)NO)c3ncnc(C)c3c2)cc1F"
  concentration at 0.5 h (ng/mL): 577

---

Entries and their measured pIC50 follow.
Tested on: HepG2
Test: Antiproliferative activity against human HepG2 cells after 96 hrs by MTT assay
Assay type: functional, cell-based
Conditions: HepG2, 96 h
pIC50: −log10 of the molar value.

- compound: "COc1ncc(-c2cc(OCCCCCCC(=O)NO)c3ncnc(C)c3c2)cc1F"
  pIC50: 5.96
- compound: "Nc1cc(C(F)(F)F)c(-c2cc(N3CCOCC3)nc(N3CCOCC3)n2)cn1 [BUPARLISIB]"
  pIC50: 5.49
- compound: "COc1ccc(-c2cc(OCCN(C)c3ncc(C(=O)NO)cn3)c3ncnc(C)c3c2)cn1"
  pIC50: 7.12
- compound: "COc1ccc(-c2nc(N3CCOCC3)c3sc(CN(C)c4ncc(C(=O)NO)cn4)cc3n2)cn1 [FIMEPINOSTAT]"
  pIC50: 7.82

---

System: Bel-7402
Test: Antiproliferative activity against human Bel7402 cells after 96 hrs by MTT assay
Type: functional, cell-based
Conditions: Bel-7402, 96 h
pIC50: −log10 of the molar value.

- compound: "Nc1cc(C(F)(F)F)c(-c2cc(N3CCOCC3)nc(N3CCOCC3)n2)cn1"
  pIC50: 4.89
- compound: "COc1ccc(-c2cc(OCCN(C)c3ncc(C(=O)NO)cn3)c3ncnc(C)c3c2)cn1"
  pIC50: 5.80
- compound: "COc1ncc(-c2cc(OCCCCCCC(=O)NO)c3ncnc(C)c3c2)cc1F"
  pIC50: 5.28
- compound: "COc1ccc(-c2nc(N3CCOCC3)c3sc(CN(C)c4ncc(C(=O)NO)cn4)cc3n2)cn1 [FIMEPINOSTAT]"
  pIC50: 7.89

---

Test: Terminal half life in ICR mouse at 30 mg/kg, po measured after 0.083 to 24 hrs by LC/MS/MS analysis
Assay type: ADME, organism-based
Details: in vivo, read-out: beta t1/2 (converted)

- chem-smiles: "COc1ncc(-c2cc(OCCCCCCC(=O)NO)c3ncnc(C)c3c2)cc1F"
  half-life, h: 2.07

---

Test: Half life in mouse plasma at 0.02 mM by LC/MS analysis
Type: ADME, cell-free

- chem-smiles: "COc1ncc(-c2cc(OCCCCCCC(=O)NO)c3ncnc(C)c3c2)cc1F"
  unit-of-measurement: "h"
  half-life at 20 µM: 1.2

---

Assay: AUC (0 to t) in ICR mouse at 30 mg/kg, po measured after 0.083 to 24 hrs by LC/MS/MS analysis
Type: ADME, organism-based
Set-up: time upper 24 hr, dose 30 mg/kg, time lower 0.083 hr, route oral
Settings: in vivo
Entries and their measured AUC(0-t) follow.

- chem-smiles: "COc1ncc(-c2cc(OCCCCCCC(=O)NO)c3ncnc(C)c3c2)cc1F"
  AUC(0-t) (ng·h/mL): 230
- chem-smiles: "COc1ccc(-c2cc(OCCN(C)c3ncc(C(=O)NO)cn3)c3ncnc(C)c3c2)cn1"
  AUC(0-t) (ng·h/mL): 23.1
